src = paper PMC12905440

- EXPERIMENTAL_SYSTEM: FLAG-Ago1 (RISC) (Drosophila melanogaster, UniProt A1Z9J5 1-950)
- Sequence (A1Z9J5 entry or part of it): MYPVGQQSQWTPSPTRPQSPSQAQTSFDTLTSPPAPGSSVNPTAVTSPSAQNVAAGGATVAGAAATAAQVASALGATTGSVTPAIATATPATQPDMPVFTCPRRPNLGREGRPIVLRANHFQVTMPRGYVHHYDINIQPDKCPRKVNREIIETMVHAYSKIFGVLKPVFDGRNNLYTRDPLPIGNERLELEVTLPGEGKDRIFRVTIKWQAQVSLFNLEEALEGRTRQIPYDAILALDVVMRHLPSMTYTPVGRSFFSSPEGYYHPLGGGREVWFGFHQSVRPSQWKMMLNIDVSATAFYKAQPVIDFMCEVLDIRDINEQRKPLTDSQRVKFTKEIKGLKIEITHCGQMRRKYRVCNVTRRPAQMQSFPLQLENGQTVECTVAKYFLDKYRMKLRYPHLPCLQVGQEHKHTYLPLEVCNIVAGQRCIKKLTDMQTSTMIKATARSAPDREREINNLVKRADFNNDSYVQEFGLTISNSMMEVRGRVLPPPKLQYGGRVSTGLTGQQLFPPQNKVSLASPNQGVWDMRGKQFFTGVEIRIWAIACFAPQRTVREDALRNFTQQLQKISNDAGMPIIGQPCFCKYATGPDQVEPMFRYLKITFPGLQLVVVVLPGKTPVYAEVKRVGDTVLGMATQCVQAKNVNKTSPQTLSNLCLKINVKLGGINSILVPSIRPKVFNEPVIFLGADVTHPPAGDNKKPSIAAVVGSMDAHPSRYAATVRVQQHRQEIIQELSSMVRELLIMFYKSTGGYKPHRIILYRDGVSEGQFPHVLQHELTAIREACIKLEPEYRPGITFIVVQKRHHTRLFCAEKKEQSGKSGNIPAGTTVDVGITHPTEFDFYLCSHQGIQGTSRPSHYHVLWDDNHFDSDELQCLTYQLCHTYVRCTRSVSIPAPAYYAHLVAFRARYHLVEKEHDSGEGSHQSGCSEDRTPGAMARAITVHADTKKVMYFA
- TEST_SUMMARY: RNA Bind-n-Seq (filter binding, sequencing, MLE); miR-11 guide; 20 mM HEPES-KOH pH 7.9, 100 mM potassium acetate, 3.5 mM magnesium acetate, 0.05% CHAPS, 2 mM DTT, 8% glycerol, 0.05 ug/ul BSA, 0.01 mg/ml yeast tRNA, 100 nM RNA library, 25 C, 2 h
- MEASUREMENT_CONDITIONS: protein: recombinant; tags: FLAG
The following binders are shown together with reported Kd values.
Just the number please, in nM, no unit attached.

miR-11 / 6mer-A1 (mixed, guide 5' phosphate) RNA 1: GUGAUA RNA 2: CAUCACAGUCUGAGUUCUUGC :: 0.404

Inquiry: Return the recorded Kd value; entry: miR-11 / 6mer (mixed, guide 5' phosphate) RNA 1: UGUGAU RNA 2: CAUCACAGUCUGAGUUCUUGC
Reply text: 0.388
